tested on: NCI-H522 lung; test: NCI-60 one-dose screen, 48 h (100 = growth as untreated, 0 = no growth, -100 = all killed); conditions: 10 µM unless noted
This is part of a sample that, as a whole, favours compounds with a hit. Of some 83,000 tested, about 20% had one in any assay.
Label Met when growth >= 90%; otherwise Not met.

Form field: growth at least 90%? Entry: FC(F)(F)C1=NNC(c2ccc3ccccc3c2)=NN1 Met

---

Listed below: growth values for each entry.
tested on: RPMI-8226 leukemia; assay: NCI-60 one-dose screen, 48 h (100 = growth as untreated, 0 = no growth, -100 = all killed); conditions: 10 µM unless noted
Compounds without any hit were thinned out: in the full panel of roughly 83,000, 20% have a hit.
Numeric answer only, unit % assumed.

Field: example entries. Status: answers known.
| compound | measured.target | growth, % |
| --- | --- | --- |
| CSCCC1NC(=O)C(C(C)=Nc2ccccc2)=C1O (stereo unspecified) | RPMI-8226 leukemia | 115 |
| CCN(CC)Cc1cc(Nc2nc(NC3CCC(N(C)C)CC3)c3ccccc3n2)ccc1OC (stereo unspecified) | RPMI-8226 leukemia | 0.511 |
| C=CCn1c(C)nc2cc(Nc3nc(N4CCOCC4)nc4nc[nH]c34)ccc21 | RPMI-8226 leukemia | 71.9 |
| O=C1C=CC(=O)N1CO | RPMI-8226 leukemia | 112 |
| COc1cc2c(cc1OC)C(=O)OC2 | RPMI-8226 leukemia | 367 |

Which measured growth belongs to C[C@@H](C[C@H](CC1CC1)c1ccccc1)c1ccc2ccccc2c1 , tested on RPMI-8226 leukemia? 98.8

---

test system: M14 melanoma; assay: NCI-60 one-dose screen, 48 h (100 = growth as untreated, 0 = no growth, -100 = all killed); details: 10 µM unless noted
Compounds without any hit were thinned out: in the full panel of roughly 83,000, 20% have a hit.
Label label 1 when growth >= 90%; otherwise label 0.

Would you please look over these solved cases?
| molecule | measured.target | assigned.label |
| --- | --- | --- |
| O=C(Nc1ccccc1Cl)Oc1ccc2ccccc2c1 | M14 melanoma | label 1 |
| C#CC[C@@H]1C[C@]2(C)[C@H]3CC=C4[C@H]5[C@@H](C)[C@H](C)CC[C@]5(C(=O)NCCCN5CCN(CCCN)CC5)CC[C@@]4(C)[C@]3(C)CC[C@H]2C(C)(C)[C@H]1OC(C)=O | M14 melanoma | label 0 |
| CN1CCN(Cc2ccc(NC(=O)c3cncc(C#Cc4cnc5cccnn45)c3)cc2C(F)(F)F)CC1 | M14 melanoma | label 0 |

Form field: growth at least 90%? Entry: O=C1/C(=C\c2cccn2Cc2ccc(F)cc2)c2ccccc2N1c1c(Cl)cccc1Cl label 1

Form field: growth at least 90%? Entry: O=C1C(Cl)=C(N/N=c2/[nH][nH]/c(=N/NC3=C(Cl)C(=O)c4ccccc4C3=O)c3ccccc23)C(=O)c2ccccc21 label 1

Form field: growth at least 90%? Entry: C1=C\CCCCN2CC[C@H]3[C@H](CCCC/C=C\CCCN4C[C@@H](CCCCC/1)C[C@@H]3C4)C2 label 0

Form field: growth at least 90%? Entry: O=C(C=P(c1ccccc1)(c1ccccc1)c1ccccc1)CCl label 0

Form field: growth at least 90%? Entry: COc1cc(-c2nc(-c3nc4cc(C(=O)c5ccccc5)ccc4[nH]3)cc3c2[nH]c2ccccc23)cc(OC)c1OC label 0

Form field: growth at least 90%? Entry: NC(=O)c1noc(C(=O)c2ccccc2)c1N label 1

Form field: growth at least 90%? Entry: CCCOC(=O)C1c2cc3c(cc2CC(C)C1C(=O)OCCC)OCO3 (centres undefined) label 1
